- study target: SMARCA2-HiBiT HeLa cells (protein which is expressed from the SMARCA2 gene) (Homo sapiens, UniProt P51531)
- Construct: protein which is expressed from the SMARCA2 and SMARCA4 genes; host or cells: HeLa (SMARCA2-HiBiT engineered line)
- Sequence (P51531 whole entry): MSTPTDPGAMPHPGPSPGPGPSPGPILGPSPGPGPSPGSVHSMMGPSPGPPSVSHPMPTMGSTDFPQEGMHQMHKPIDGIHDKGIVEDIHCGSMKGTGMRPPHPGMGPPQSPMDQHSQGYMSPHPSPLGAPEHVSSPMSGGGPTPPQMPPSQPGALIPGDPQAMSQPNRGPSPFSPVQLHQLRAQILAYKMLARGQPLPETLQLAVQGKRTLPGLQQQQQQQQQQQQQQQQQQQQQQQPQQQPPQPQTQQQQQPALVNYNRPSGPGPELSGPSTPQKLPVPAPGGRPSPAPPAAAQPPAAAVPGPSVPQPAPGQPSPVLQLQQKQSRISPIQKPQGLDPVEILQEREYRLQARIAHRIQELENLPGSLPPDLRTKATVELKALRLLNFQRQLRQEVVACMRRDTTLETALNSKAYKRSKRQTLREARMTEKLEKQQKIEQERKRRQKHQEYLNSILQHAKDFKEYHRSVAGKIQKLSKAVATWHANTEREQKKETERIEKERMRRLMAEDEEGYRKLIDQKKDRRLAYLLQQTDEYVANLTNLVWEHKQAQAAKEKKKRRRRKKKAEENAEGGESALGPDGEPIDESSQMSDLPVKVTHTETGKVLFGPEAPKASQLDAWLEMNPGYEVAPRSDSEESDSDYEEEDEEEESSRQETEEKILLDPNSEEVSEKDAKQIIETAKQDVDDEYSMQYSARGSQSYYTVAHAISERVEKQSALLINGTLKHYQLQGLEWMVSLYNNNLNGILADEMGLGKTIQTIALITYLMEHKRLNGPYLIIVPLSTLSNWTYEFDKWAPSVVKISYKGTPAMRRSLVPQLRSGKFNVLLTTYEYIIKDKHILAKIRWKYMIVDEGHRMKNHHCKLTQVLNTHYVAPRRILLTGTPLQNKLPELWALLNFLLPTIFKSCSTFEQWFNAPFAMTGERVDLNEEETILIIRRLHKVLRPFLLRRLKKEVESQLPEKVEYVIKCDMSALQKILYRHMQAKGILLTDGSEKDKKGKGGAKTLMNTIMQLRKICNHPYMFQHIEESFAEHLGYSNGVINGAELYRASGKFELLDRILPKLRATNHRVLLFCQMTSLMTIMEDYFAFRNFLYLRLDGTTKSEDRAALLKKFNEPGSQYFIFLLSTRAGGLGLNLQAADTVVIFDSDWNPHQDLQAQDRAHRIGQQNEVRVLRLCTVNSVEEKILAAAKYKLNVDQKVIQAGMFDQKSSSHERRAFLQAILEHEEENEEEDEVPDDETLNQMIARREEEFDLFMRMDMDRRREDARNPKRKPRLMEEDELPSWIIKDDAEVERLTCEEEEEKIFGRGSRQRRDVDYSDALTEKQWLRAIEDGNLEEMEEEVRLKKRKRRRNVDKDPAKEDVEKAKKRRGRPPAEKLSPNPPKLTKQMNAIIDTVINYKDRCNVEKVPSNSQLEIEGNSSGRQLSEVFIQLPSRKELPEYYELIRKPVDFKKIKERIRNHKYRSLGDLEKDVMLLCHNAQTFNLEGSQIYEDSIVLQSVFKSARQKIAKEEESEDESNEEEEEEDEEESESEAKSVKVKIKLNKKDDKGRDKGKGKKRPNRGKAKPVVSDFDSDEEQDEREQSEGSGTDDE
- protocol summary: SMARCA2 degradation assay (HiBiT-fusion HeLa cell line, 24 h, luminescence)
- Assay type: cell-based
- details: @ 1 μM
endpoint name: SMARCA2 % Degradation @ 1 μM

Reference set (5 entries):
compound | SMARCA2 % Degradation @ 1 μM
Nc1nnc(-c2ccccc2O)cc1N1CCC2(CCN(c3ccnc(C#CCNC(=O)c4cc5ncccn5n4)n3)CC2)CC1 | ++ (++=30-70%)
COCc1cc(N2CCCN(c3cc(-c4ccccc4O)nnc3N)CC2)nc(C#CCNC(=O)c2nn(C)c(C)c2C)n1 | ++ (++=30-70%)
Cc1nccn1CC#Cc1nccc(N2CCN(c3cc(-c4ccccc4O)nnc3N)CC[C@H]2C)n1 | +++ (+++=>70%)
CC(C)(C)OC(=O)NC1CCN(CC#Cc2nccc(N3CCCN(c4cc(-c5ccccc5O)nnc4N)CC3)n2)CC1 | +++ (+++=>70%)
Nc1nnc(-c2ccccc2O)cc1N1C2CCC1CN(c1ccnc(C#CCn3ccnc3)n1)C2 | ++ (++=30-70%)

Okay, here is my list. What is SMARCA2 % Degradation @ 1 μM for each of these?
1. CC[C@@H](C)NCC#Cc1nccc(N2CCCN(c3cc(-c4ccccc4O)nnc3N)CC2)n1
2. C[C@@H]1CCN(c2cc(-c3ccccc3O)nnc2N)CCN1c1ccnc(C#CCNc2ccn(C)n2)n1
3. C[C@@H]1CN(c2ccnc(C#CCNC(=O)c3cc4ncccn4n3)n2)CCN1c1cc(-c2ccccc2O)nnc1N
4. C/C=C/c1nccc(N2CCCN(c3cc(-c4ccccc4O)nnc3N)CC2)n1
5. CS(=O)(=O)N1CCC(C#Cc2nccc(N3CCCN(c4cc(-c5ccccc5O)nnc4N)CC3)n2)CC1
6. C[C@@H]1CCN(c2cc(-c3ccccc3O)nnc2N)CCN1c1nc(C#CCN(C)C)ncc1F
7. C[C@@H]1CN(c2cc(-c3ccccc3O)nnc2N)CCN1c1ccnc(C#CCNC(=O)c2cc3ncccn3n2)n1
8. CC(C)(C)OC(=O)NC/C=C/c1nccc(N2CCCN(c3cc(-c4ccccc4O)nnc3N)CC2)n1

Output:
1. +++ (+++=>70%)
2. ++ (++=30-70%)
3. + (+=<30%)
4. ??
5. ++ (++=30-70%)
6. ++ (++=30-70%)
7. ++ (++=30-70%)
8. +++ (+++=>70%)

Okay, here is my list. What is SMARCA2 % Degradation @ 1 μM for each of these?
1. Cc1nn2ccn(CC#Cc3nccc(N4CC5CCC(C4)N5c4cc(-c5ccccc5O)nnc4N)n3)c(=O)c2c1C
2. C[C@H]1CN(c2ccnc(C#CCN3CCCCC3)n2)CCN1c1cc(-c2ccccc2O)nnc1N
3. CNCC#Cc1nccc(N2CCN(c3cc(-c4ccccc4O)nnc3N)[C@@H](C)C2)n1
4. Cn1cnc(C(=O)NCC#Cc2nccc(N3CCN(c4cc(-c5ccccc5O)nnc4N)CC3)n2)c1

Output:
++ (++=30-70%)
++ (++=30-70%)
++ (++=30-70%)
+ (+=<30%)

---

- study target: SMARCA2-HiBiT HeLa cells (protein which is expressed from the SMARCA2 gene) (Homo sapiens, UniProt P51531)
- Construct: protein which is expressed from the SMARCA2 and SMARCA4 genes; host or cells: HeLa (SMARCA2-HiBiT engineered line)
- protocol summary: SMARCA2 degradation assay (HiBiT-fusion HeLa cell line, 24 h, luminescence)
- Type: cell-based
endpoint name: DC50

Reference set (10 entries):
molecule | endpoint name | val
CN(C)CC#Cc1cc(OC2CCN(c3cc(-c4ccccc4O)nnc3N)CC2)ccn1 | DC50 | 50 to 500 nM
Nc1nnc(-c2ccccc2O)cc1N1CCN(c2ccnc(C#CCNC(=O)c3cc4ncccn4n3)n2)C2CC21 (stereo not drawn) | DC50 | 50 to 500 nM
Nc1nnc(-c2ccccc2O)cc1N1CCN(c2ccnc(C#CCNC(=O)c3ccn(CC(F)(F)F)n3)n2)CC1 | DC50 | 50 to 500 nM
NCC#Cc1nccc(N2CCCC3(CCN(c4cc(-c5ccccc5O)nnc4N)CC3)C2)n1 | DC50 | 500 to 5000 nM
Nc1nnc(-c2ccccc2O)cc1N1CC2CCN(c3ccnc(C#CCNC(=O)c4cc5ncccn5n4)n3)C2C1 (stereo not drawn) | DC50 | 50 to 500 nM
C[C@H]1CCN(c2cc(-c3ccccc3O)nnc2N)CCN1c1ccc(C#N)c(C#CCN(C)CC(F)(F)F)n1 | DC50 | 50 to 500 nM
C[C@@H]1CCN(c2cc(-c3ccccc3O)nnc2N)CCN1c1nc(C#CCO)ncc1F | DC50 | 500 to 5000 nM
Nc1nnc(-c2ccccc2O)cc1N1CCCN(c2ccnc(C#CCN3CCCC(O)C3)n2)CC1 (stereo not drawn) | DC50 | 500 to 5000 nM
Cn1ccc(NCC#Cc2nccc(N3CC4CCC(C3)N4c3cc(-c4ccccc4O)nnc3N)n2)n1 | DC50 | 50 to 500 nM
CC(C)(C)OC(=O)NCC#Cc1nccc(N2CCCN(c3cc(-c4ccccc4O)nnc3N)CC2)n1 | DC50 | 50 to 500 nM

Okay, here is my list. What is DC50 for each of these?
1. Cc1cc(C(=O)NCC#Cc2nccc(N3CCN(c4cc(-c5ccccc5O)nnc4N)CC3)n2)no1
2. C[C@@H]1CCN(c2cc(-c3ccccc3O)nnc2N)CCN1c1ccnc(C#CCO)c1
3. C[C@@H]1CCN(c2cc(-c3ccccc3O)nnc2N)CCN1c1ccnc(C#CCOCC2CC(N(C)C)C2)n1 (stereo partly drawn)
4. Nc1nnc(-c2ccccc2O)cc1N1CCCN(c2ccnc(C#Cc3cnc4cnccn34)n2)CC1
5. C[C@@H]1CCN(c2cc(-c3ccccc3O)nnc2N)CCN1c1ccnc(/C=C/C2CC2)n1

Output:
1: 50 to 500 nM; 2: 50 to 500 nM; 3: 50 to 500 nM; 4: 50 to 500 nM; 5: 50 to 500 nM

Attribution: patent US20260265238A1
